cytotoxicity at 10 µM values by entry
Assay: Toxicity liver stage against HepG2, at 10uM
Assay type: cell-based
Design: test concentration 10 uM, cell line HepG2-A16-CD81EGFP
Conditions: human, HepG2-A16-CD81EGFP cells; read-out: INHIBITION

molecule	u	cytotoxicity at 10 µM
CC(C)COC(C)C(=O)NCCNC(=O)C(C)C (configuration not stated)	%	-15.2
CCCC1COCCN1Cc1ccc(C(=O)O)cc1 (configuration not stated)	%	-139
CCC(=O)N1CCN(C(=O)Nc2cccc(N3CCOCC3)c2)CC1	%	-3.1
COC1CCC[C@@H]2CN(Cc3csc(C)n3)C[C@H]12 (some centres not stated)	%	-110
CC(NS(C)(=O)=O)C(=O)N(C)Cc1csc(-c2cccs2)n1 (configuration not stated)	%	-0.525
CN(Cc1nnc2n1CCC2)C(=O)Cc1ccc2c(c1)CCC2	%	-15.5
CCCc1nc(CNc2cc(CS(C)(=O)=O)ccc2Cl)no1	%	-2.07
Cc1ncc(C(=O)NC2CCN(CCOc3ccc(Br)cc3)CC2)s1	%	7.28
Cc1ccc(-c2n[nH]cc2CNCCn2cccn2)o1	%	-11.2
CN1[C@@H]2CC[C@H]1CN(C(=O)c1nnc3n1CCCCC3)CC2	%	-5.43
Cc1nc2n(n1)CC(NCc1nnc(C(C)(C)C)o1)CC2 (configuration not stated)	%	-5.23
O=C(NC1CCCC1)c1cnn2c(-c3ccco3)ccnc12	%	10.2
CC(C)N(CCC#N)C(=O)c1cnc(-c2ccc3c(c2)OCO3)s1	%	0.247
Cc1c(C)n2c(SCC(=O)N3CCC(C)CC3)nnc2[nH]c1=O	%	0.351
COCCC(=O)N1CCC2(COCc3cnc(-c4ccccc4)nc32)C1 (configuration not stated)	%	3.6
CCc1nc2n(n1)CC(NCc1cn(C)nc1-c1cccnc1)CC2 (configuration not stated)	%	-5.95
Cc1occc1C(=O)N1CCCC1c1ccc(C(=O)N2CCOCC2)s1 (configuration not stated)	%	-143
Cc1nn(C)c(C)c1NC(=O)c1cccc(CN2CCS(=O)(=O)CC2)c1	%	-15.8
CC(C)NC1CCCc2nc(-c3ccccc3)ncc21 (configuration not stated)	%	16.1
CC(C)C[C@@H](CO)n1cc(-c2cncnc2)nn1	%	-0.268
COc1ccc(C(=O)N2CCC(C3CCN(c4ncccn4)CC3)C2)o1 (configuration not stated)	%	-12.5
COc1ccc([C@@H]2CN(c3cnccn3)C[C@H]2N(C)C)cc1	%	6.55
CCc1nc(NS(=O)(=O)c2cc(C)ccc2F)no1	%	-4.71
CCn1nnc2c1C(COC)CN(C(=O)COc1ccccc1)C2 (configuration not stated)	%	-17.1
CN1CCN(C)C2(CCN(Cc3ccsc3)CC2)C1=O	%	0.0221
CC(C)CC1COCCN1C(=O)Cc1cccs1 (configuration not stated)	%	5.84
CC(C)NC(=O)N1CCCC2(CCN(c3ccsc3)C2=O)C1 (configuration not stated)	%	-0.42
O=C(O)CCc1cc2n(n1)CCN(Cc1cnc(N3CCCC3)nc1)C2	%	-1.89
CNC(=O)[C@H]1CC[C@@H]2[C@@H](CCN2c2ncccn2)O1	%	6.25
CC(=O)N[C@@H]1CN(S(=O)(=O)c2ccc(Cl)cc2)C[C@H]1O	%	7.03
Cc1cccc(N2CC3(CCN(C(=O)NC(C)C)C3)CC2=O)c1 (configuration not stated)	%	-3.7
CCCn1ncc(CN2CCCC(C(=O)c3ccc(SC)cc3)C2)c1C (configuration not stated)	%	-3.25
COc1ccc(C[C@H]2CN(C(=O)c3cscn3)CC[C@@H]2OC)cc1	%	7.71
COC(=O)c1ccc(N2CCN(C(=O)C3CC3)C(C)C2)cc1 (configuration not stated)	%	-1.07
COc1ccccc1C1CNCCN1C(=O)c1ccc(F)cc1 (configuration not stated)	%	0.57
CCN1CCC(CC(=O)NCCc2nc(C)cc(C)n2)CC1	%	-8.06
CCc1n[nH]c(C2CN(C(=O)c3ncoc3C(C)C)CCO2)n1 (configuration not stated)	%	-9.8
COCCCNC(=O)N1CCN(C(=O)c2nsc3ccccc23)CC1	%	12
NC(=O)CN1CCCC1c1cncc(Oc2ccc(Cl)cc2)n1 (configuration not stated)	%	-10.4
Cn1ccc2ccnc(CC3CN(C(=O)c4cscn4)C3)c21	%	-28.6
COCCN(C)C[C@@H]1CN(C(=O)c2ccc3c(c2)OCO3)C[C@@H]1CO	%	8.47
CC(=O)CN1CC2(CCNCC2)COc2ccccc2S1(=O)=O	%	3.13
O=C1CCC2(CCN(Cc3cscn3)CC2)CN1C1CCC(O)CC1 (configuration not stated)	%	-4.33
CNc1nc2c(s1)C(c1c(Cl)cccc1Cl)CC(=O)N2 (configuration not stated)	%	-10.4
CCc1nc(CNCC2(C(N)=O)CCOCC2)cs1	%	-3.97
COc1cc(C(=O)Nc2nc(C)no2)ccc1OC1CCCC1	%	-2.12
CC(c1ccco1)N(C(=O)c1cccc(C#N)c1)C1CC1 (configuration not stated)	%	1.18
